- tested.target: T1, Recombinant Human DLL4 (R&D Systems Cat#1506-D4/CF) (human, UniProt Q9NR61 27-524)
- T1 construct: also called delta-like protein 4; Delta-like 4
- assay.notes: ECL (MSD) multispot binding assay, immobilised recombinant human DLL4, Fab at 0.04 uM
measurement.kind: ECL Signal/Noise
Answer with a number only.

Recorded ECL Signal/Noise, per entry:
Fab VH5-51_IGHD5-18*01>3_IGHJ4*01 G100K/G104T (H:KT) & V3-4_IGLJ1*01 G97A (Fab, V domains shown, Fab; CH1 (His6/Flag tags, plasmid A) and lambda CL (plasmid E) as for the parent) VH: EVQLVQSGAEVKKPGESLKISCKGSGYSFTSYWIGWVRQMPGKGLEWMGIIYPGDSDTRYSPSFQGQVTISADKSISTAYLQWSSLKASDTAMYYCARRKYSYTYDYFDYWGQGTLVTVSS VL: QTVVTQEPSFSVSPGGTVTLTCGLSSGSVSTSYYPSWYQQTPGQAPRTLIYSTNTRSSGVPDRFSGSILGNKAALTITGAQADDESDYYCVLYMGSAISYVFGTGTKVTVL	24.7
Fab VH5-51_IGHD5-18*01>3_IGHJ4*01 G100K/G104T (H:KT) & V3-4_IGLJ1*01 I98A (Fab, V domains shown, Fab; CH1 (His6/Flag tags, plasmid A) and lambda CL (plasmid E) as for the parent) VH: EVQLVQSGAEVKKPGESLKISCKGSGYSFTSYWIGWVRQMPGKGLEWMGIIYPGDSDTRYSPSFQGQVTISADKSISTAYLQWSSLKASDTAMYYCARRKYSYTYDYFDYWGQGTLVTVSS VL: QTVVTQEPSFSVSPGGTVTLTCGLSSGSVSTSYYPSWYQQTPGQAPRTLIYSTNTRSSGVPDRFSGSILGNKAALTITGAQADDESDYYCVLYMGSGASYVFGTGTKVTVL	32.6
Fab VH5-51_IGHD5-18*01>3_IGHJ4*01 G100K/G104T (H:KT) & V3-4_IGLJ1*01 G95A (Fab, V domains shown, Fab; CH1 (His6/Flag tags, plasmid A) and lambda CL (plasmid E) as for the parent) VH: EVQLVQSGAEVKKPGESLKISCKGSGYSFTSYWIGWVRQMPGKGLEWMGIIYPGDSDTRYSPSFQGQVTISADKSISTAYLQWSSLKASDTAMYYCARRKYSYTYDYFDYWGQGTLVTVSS VL: QTVVTQEPSFSVSPGGTVTLTCGLSSGSVSTSYYPSWYQQTPGQAPRTLIYSTNTRSSGVPDRFSGSILGNKAALTITGAQADDESDYYCVLYMASGISYVFGTGTKVTVL	34.4

Next up:
[in] Specify ECL Signal/Noise for Fab VH5-51_IGHD5-18*01>3_IGHJ4*01 G100K/G104T (H:KT) & V3-4_IGLJ1*01 M94A (Fab, V domains shown, Fab; CH1 (His6/Flag tags, plasmid A) and lambda CL (plasmid E) as for the parent) VH: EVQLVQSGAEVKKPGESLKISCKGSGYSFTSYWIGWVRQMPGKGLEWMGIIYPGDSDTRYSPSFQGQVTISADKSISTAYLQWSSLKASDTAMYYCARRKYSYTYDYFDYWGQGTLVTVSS VL: QTVVTQEPSFSVSPGGTVTLTCGLSSGSVSTSYYPSWYQQTPGQAPRTLIYSTNTRSSGVPDRFSGSILGNKAALTITGAQADDESDYYCVLYAGSGISYVFGTGTKVTVL and stop.
[out] 53.1

Measured values drawn from patent US20120316071A1 for this set.
